Data provenance is patent US20210324080A1.

- Tested Target: T1, CTLA-4-hFc (immunogen A; hFc-labeled CTLA-4 extracellular domain protein) (human, UniProt P16410 36-161)
- T1 construct: range 36-161; Made in HEK293 cells, purified on protein A; also called CLTA-4-hFc; CTLA-4 protein; not shown: human IgG Fc fragment (hFc) of the pCpC vector
- T1 sequence (looked up): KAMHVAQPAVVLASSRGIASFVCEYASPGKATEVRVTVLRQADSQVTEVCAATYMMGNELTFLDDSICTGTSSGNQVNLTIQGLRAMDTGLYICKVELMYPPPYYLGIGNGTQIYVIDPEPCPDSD
- Method: ELISA, coated CTLA-4-hFc, competitor biotin-B7.2-hFc
Value Kind: Inhibition rate (%) at 0.091 nM
Answer in %, number only, no unit symbol.

For record 31C12F3 (chimeric antibody purified from hybridoma supernatant) (antibody, V domains shown, also called mAb010) VH: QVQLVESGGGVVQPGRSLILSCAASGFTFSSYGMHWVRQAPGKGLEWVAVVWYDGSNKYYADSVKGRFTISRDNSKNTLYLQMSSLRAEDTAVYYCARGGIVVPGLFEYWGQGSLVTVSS VL: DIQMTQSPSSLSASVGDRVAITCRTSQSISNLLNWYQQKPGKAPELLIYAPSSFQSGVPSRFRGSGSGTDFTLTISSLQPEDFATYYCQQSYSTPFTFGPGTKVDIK the listed Inhibition rate (%) at 0.091 nM is -8.8

In plain terms, 97A8D1 (chimeric antibody purified from hybridoma supernatant) (antibody, V domains shown, also called mAb49; mAb049) VH: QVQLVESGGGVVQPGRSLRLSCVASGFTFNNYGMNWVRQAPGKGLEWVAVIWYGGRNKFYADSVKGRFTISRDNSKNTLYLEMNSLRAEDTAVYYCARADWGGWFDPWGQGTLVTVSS VL: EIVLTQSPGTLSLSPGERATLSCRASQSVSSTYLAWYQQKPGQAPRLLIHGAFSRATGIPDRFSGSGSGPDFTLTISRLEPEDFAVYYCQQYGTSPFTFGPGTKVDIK has a documented Inhibition rate (%) at 0.091 nM of -21

// recorded Inhibition rate (%) at 0.091 nM for 92C8B6 (chimeric antibody purified from hybridoma supernatant) (antibody, V domains shown, also called mAb42; mAb042) VH: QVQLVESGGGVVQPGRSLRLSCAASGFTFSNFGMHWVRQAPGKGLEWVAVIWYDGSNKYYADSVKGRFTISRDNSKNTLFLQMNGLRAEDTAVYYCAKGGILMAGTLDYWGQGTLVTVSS VL: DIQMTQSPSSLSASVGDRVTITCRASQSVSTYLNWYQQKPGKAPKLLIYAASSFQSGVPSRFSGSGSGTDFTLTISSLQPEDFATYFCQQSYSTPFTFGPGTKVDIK : 23

Lookup result for 40C4C6 (chimeric antibody purified from hybridoma supernatant) (antibody, V domains shown, also called mAb09; mAb009) VH: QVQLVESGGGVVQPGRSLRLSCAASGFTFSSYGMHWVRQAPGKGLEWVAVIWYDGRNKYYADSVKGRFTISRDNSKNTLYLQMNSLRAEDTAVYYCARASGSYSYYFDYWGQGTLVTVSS VL: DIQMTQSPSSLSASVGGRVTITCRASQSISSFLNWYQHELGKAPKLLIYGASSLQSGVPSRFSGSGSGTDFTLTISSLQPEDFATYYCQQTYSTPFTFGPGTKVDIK ; measured Inhibition rate (%) at 0.091 nM: 5.3
